tested on: Oryctolagus cuniculus; assay: Toxicity in New Zealand white rabbit myocardial ischemia/reperfusion injury model assessed as mean blood pressure at 1.79 umol/kg, administered as single bolus dose at 20 mins of sustained ischemia (reference value: 64 +/- 5 mmHg); assay type: organism-based; conditions: in vivo
Label key: Fulfilled means Activity under 80 mmHg; Not fulfilled means Activity of 80 mmHg or more.

In the record for Nc1ncnc2c1ncn2CCCCO , is Activity less than 80 mmHg?
Not fulfilled

In the record for NC(=S)c1ccc(OC[C@H]2O[C@@H](n3cnc4c(N)ncnc43)[C@H](O)[C@@H]2O)cc1 , is Activity less than 80 mmHg?
Not fulfilled

In the record for [Na+].[SH-] [SODIUM HYDROSULFIDE] , is Activity less than 80 mmHg?
Fulfilled

In the record for NC(=O)c1ccc(OCCCCn2cnc3c(N)ncnc32)cc1 , is Activity less than 80 mmHg?
Fulfilled

###

test: Induction of H2S release in potassium phosphate buffer at pH 7.4 after 15 mins by methylene-blue assay; format: physicochemical; details: pH 7.4, 0.25 h
Readout name: Activity

Worked examples, 5 molecules total:
>>> df
                                   molecule  readout_name          readout_value
0     NC(=S)c1ccc(OCCCCn2cnc3c(N)ncnc32)cc1      Activity  Dose-dependent effect
1  CC1(C)O[C@@H]2[C@H](O1)[C@@H](COc1ccc(C(N)=S)cc1)O[C@H]2n1cnc2c(N)ncnc21      Activity  Dose-dependent effect
2  Nc1ncnc2c1ncn2[C@@H]1O[C@H](COc2ccc(-c3cc(=S)ss3)cc2)[C@@H](O)[C@H]1O      Activity  Dose-dependent effect
3  Nc1ncnc2c1ncn2CCCCOc1ccc(-c2cc(=S)ss2)cc1      Activity  Dose-dependent effect
4  NC(=S)c1ccc(OC[C@H]2O[C@@H](n3cnc4c(N)ncnc43)[C@H](O)[C@@H]2O)cc1      Activity  Dose-dependent effect

Next molecule, please.
The recorded Activity for CC1(C)O[C@@H]2[C@H](O1)[C@@H](COc1ccc(-c3cc(=S)ss3)cc1)O[C@H]2n1cnc2c(N)ncnc21 is Dose-dependent effect
